These data points were gathered from paper PMC4191588.

protocol details: Preliminary in vivo PK studies
measured metric: clearance

Which clearance value belongs to "Cc1cnc(-c2ccccc2C(C)C)nc1NCc1ccc(-n2ccnn2)cc1" ? > 70 mL/min/kg
